Molecular target: Sentrin-specific protease 8 (Homo sapiens)
Experiment: blockers of SENP8 deneddylase activity – biochemical, fluorescence, Nedd8 protein substrate, uHTS, primary screen (AID 602440)
Details: recombinant SENP8, Nedd8 substrate fluorescence; at 20 µM; hits give high values
Out of some 360,000 compounds screened, about 2,300 (0.64%) were called active. The full list was thinned out, with actives kept by preference.
Please go through the items and note down their inhibition.
Record the value in %, omitting the unit from your answer.

Q. Under Sentrin-specific protease 8 (Homo sapiens), report inhibition for O=[N+]([O-])c1ccccc1NCc1ccccc1Cl
A. 46.6

Q. Under Sentrin-specific protease 8 (Homo sapiens), report inhibition for COc1ccc(OC)c(NC(=O)c2ccc3c(c2)CCN3S(C)(=O)=O)c1
A. 3

Q. Under Sentrin-specific protease 8 (Homo sapiens), report inhibition for CS(=O)(=O)c1ccc(C(=O)OCC(=O)NNC(=O)COc2ccc(Cl)cc2)cc1
A. 11.8

Q. Under Sentrin-specific protease 8 (Homo sapiens), report inhibition for COc1cc(C(=O)NC2CCN(Cc3ccccc3)CC2)cc(Cl)c1OC(C)C
A. 3.3

Q. Under Sentrin-specific protease 8 (Homo sapiens), report inhibition for CCOC(=O)C1CCCN(C(=O)c2ccc(N(C)C)cc2)CC1 (configuration not stated)
A. 18.8

Q. Under Sentrin-specific protease 8 (Homo sapiens), report inhibition for O=C(NCc1ccccc1Cl)NC(=O)c1csc([N+](=O)[O-])c1
A. 6.1

Q. Under Sentrin-specific protease 8 (Homo sapiens), report inhibition for C/C(=N\Nc1ccccc1)c1cccs1
A. -20.5

Q. Under Sentrin-specific protease 8 (Homo sapiens), report inhibition for O=C(c1ccccc1)c1ccc(OC(=O)N2CCCC2)cc1
A. 22.4

Q. Under Sentrin-specific protease 8 (Homo sapiens), report inhibition for CCCC(O)(c1ccc(OC)cc1)C(CN(C)C)c1ccccc1 (configuration not stated)
A. 10.7

Q. Under Sentrin-specific protease 8 (Homo sapiens), report inhibition for O=C(NCCNc1ccccc1[N+](=O)[O-])c1ccccc1F
A. 19.2

Q. Under Sentrin-specific protease 8 (Homo sapiens), report inhibition for CC/C(=N/Nc1ccccc1)c1cnnc(SC)n1
A. 61.2

Q. Under Sentrin-specific protease 8 (Homo sapiens), report inhibition for CC(C)N(C(=O)Cn1cc(S(=O)(=O)CC(=O)N2CCOCC2)c2ccccc21)C(C)C
A. 5.7

Q. Under Sentrin-specific protease 8 (Homo sapiens), report inhibition for Nc1ccc2nc3c(=O)[nH]c(=S)[nH]c3nc2c1
A. 46.9

Q. Under Sentrin-specific protease 8 (Homo sapiens), report inhibition for COc1cc(C(=S)N2CCOCC2)cc(OC)c1OC(=O)c1cc([N+](=O)[O-])c(C)c([N+](=O)[O-])c1
A. 27.5

Q. Under Sentrin-specific protease 8 (Homo sapiens), report inhibition for CCCNC(=O)CCn1cc(-c2ccc(OC)cc2)nc1CCN
A. -0.4

Q. Under Sentrin-specific protease 8 (Homo sapiens), report inhibition for CCc1ccc(-c2nnn(Cc3nc4ccccc4s3)n2)cc1
A. 14

Q. Under Sentrin-specific protease 8 (Homo sapiens), report inhibition for COCCNc1nc(-n2nc(C)cc2C)nc2sc3c(c12)CCCC3
A. -415

Q. Under Sentrin-specific protease 8 (Homo sapiens), report inhibition for O=c1ccn([C@@H]2O[C@H](CNS(=O)(=O)c3cc4ccccc4s3)[C@@H](O)[C@H]2O)c(=O)[nH]1
A. 7.7

Q. Under Sentrin-specific protease 8 (Homo sapiens), report inhibition for COc1cc(C(=S)N2CCOCC2)cc(OC)c1OC(=O)c1cc([N+](=O)[O-])cc([N+](=O)[O-])c1
A. 40.9

Q. Under Sentrin-specific protease 8 (Homo sapiens), report inhibition for O=C(NCc1ccccc1)C(=O)NCC1OCCN1S(=O)(=O)c1ccc(Br)cc1 (configuration not stated)
A. 0.6

Q. Under Sentrin-specific protease 8 (Homo sapiens), report inhibition for COc1cc(C(=S)N2CCOCC2)cc(OC)c1OC(=O)c1ccc([N+](=O)[O-])cc1[N+](=O)[O-]
A. 11.9

Q. Under Sentrin-specific protease 8 (Homo sapiens), report inhibition for COc1cccc(N2CC(C(=O)NCc3n[nH]c(=O)c4ccccc34)CC2=O)c1 (configuration not stated)
A. -0.8
